# assay target: Ba/F3 stable cells (Homo sapiens, UniProt P04626, DUP772-775, cells depend on it)
# Construct: EC50 Ba/F3-HER2 A775-G776insYVMA; other: Ba/F3-HER2 A775-G776insYVMA cells, 72 h, CCK-8
# Sequence (P04626 with tags, fused parts or gaps DUP772-775): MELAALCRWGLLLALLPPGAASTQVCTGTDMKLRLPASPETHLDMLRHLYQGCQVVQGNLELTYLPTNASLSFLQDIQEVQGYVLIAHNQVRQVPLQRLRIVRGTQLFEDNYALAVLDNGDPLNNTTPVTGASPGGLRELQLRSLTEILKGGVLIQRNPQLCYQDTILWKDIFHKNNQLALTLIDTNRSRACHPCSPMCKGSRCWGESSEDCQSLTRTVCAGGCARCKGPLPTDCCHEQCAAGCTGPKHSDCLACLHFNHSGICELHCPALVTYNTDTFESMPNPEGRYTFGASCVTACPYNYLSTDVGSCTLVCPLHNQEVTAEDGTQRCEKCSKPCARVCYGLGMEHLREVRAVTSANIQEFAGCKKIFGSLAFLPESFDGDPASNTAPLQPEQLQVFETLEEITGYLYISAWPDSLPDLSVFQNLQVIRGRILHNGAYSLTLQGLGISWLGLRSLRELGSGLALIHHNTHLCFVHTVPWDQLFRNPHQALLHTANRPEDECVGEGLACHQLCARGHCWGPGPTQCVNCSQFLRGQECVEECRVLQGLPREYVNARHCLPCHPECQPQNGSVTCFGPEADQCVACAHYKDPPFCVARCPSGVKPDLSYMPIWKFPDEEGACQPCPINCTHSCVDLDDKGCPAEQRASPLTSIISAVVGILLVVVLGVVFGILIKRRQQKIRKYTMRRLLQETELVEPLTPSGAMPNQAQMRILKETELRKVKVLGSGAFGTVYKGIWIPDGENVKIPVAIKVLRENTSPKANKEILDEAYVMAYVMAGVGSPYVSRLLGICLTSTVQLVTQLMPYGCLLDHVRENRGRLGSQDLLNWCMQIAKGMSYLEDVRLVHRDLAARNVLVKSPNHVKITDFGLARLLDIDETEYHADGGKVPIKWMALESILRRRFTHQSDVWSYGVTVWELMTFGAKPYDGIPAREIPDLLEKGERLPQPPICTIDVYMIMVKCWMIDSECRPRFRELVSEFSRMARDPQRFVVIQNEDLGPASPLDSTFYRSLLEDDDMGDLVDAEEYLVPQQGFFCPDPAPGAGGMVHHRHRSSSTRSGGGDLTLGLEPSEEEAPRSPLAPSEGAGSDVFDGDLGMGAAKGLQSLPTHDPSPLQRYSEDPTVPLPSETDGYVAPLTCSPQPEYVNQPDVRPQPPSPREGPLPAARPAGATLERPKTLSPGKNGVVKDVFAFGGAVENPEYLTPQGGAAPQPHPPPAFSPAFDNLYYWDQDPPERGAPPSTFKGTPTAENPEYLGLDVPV
# procedure summary: EC50 assay: Ba/F3 stable cell proliferation (CCK-8, 72 h)
# details: Ba/F3-HER2 A775-G776insYVMA cells
# Protocol: 4,000 Ba/F3 stable cells/90 μL/well were plated onto 96-well cell culture plate (Grenier, Cat.No. 655180) and incubated at 37° C. with a humidified atmosphere of 5% CO2 for 2 h. Then the cells were treated with 10 μL compounds at serial titration. […] 10 μL the cell proliferation reagent CCK-8 (Dojindo, Cat.No. CK04 1000T) was added into each well and incubated the plate at 37° C. for 4 hours, the GD value was measured by SPECTRAmax plus (Molecular Devices) at 450 nm. […]
pEC50: −log10 of the molar value.
Overview of reported pEC50 across a group of molecules:

Answered examples (3):
C=CC(=O)N1CCC(Oc2cc3c(NC(CC(=O)O)c4cccc(Cl)c4)ncnc3cc2OC)CC1 (centres unmarked) [Compound 129]    < 6.00
C=CC(=O)NC1CC(Oc2cc3c(Nc4ccc(F)c(C#N)c4)ncnc3cc2OC)C1 (centres unmarked) [Compound 87]    < 6.00
C=CC(=O)N1CCC(Oc2cc3c(Nc4cccc5cccnc45)ncnc3cc2OC)CC1 [Compound 146]    6.00 to 6.70

Give the reported value of pEC50 for this record: C=CC(=O)N1CC(c2cc3c(Nc4ccc(Cl)c(Cl)c4F)ncnc3cc2O[C@@H]2CCOC2)C1 [Compound 29]
6.00 to 6.70

Give the reported value of pEC50 for this record: C=CC(=O)N1CCCC(c2cc3c(Nc4ccc(Cl)c(Cl)c4F)ncnc3cc2OC)C1 (centres unmarked) [Compound 185]
6.00 to 6.70

Give the reported value of pEC50 for this record: C=CC(=O)N1CCC(Oc2cc3c(NCc4cc(Cl)cc(Cl)c4)ncnc3cc2OC)CC1 [Compound 117]
< 6.00

Give the reported value of pEC50 for this record: C=CC(=O)N1CCC(Oc2cc3c(Nc4ccc(Cl)c(Cl)c4F)ncnc3cc2OC)CC1 [Compound 133]
≥ 6.70

Give the reported value of pEC50 for this record: C=CC(=O)N1C2CCC1CC(Oc1cc3c(Nc4ccc(Cl)c(Cl)c4F)ncnc3cc1OC)C2 (centres unmarked) [Compound 177]
≥ 6.70

Give the reported value of pEC50 for this record: C=CC(=O)N[C@H]1C[C@H](Oc2cc3c(Nc4ccccc4F)ncnc3cc2OC)C1 [Compound 77]
6.00 to 6.70

Give the reported value of pEC50 for this record: C=CC(=O)N1CC(c2cc3c(Nc4ccc(Cl)c(Cl)c4F)ncnc3cc2OC2CCOCC2)C1 [Compound 27]
< 6.00

Give the reported value of pEC50 for this record: COc1cc2ncnc(Nc3ccc(Cl)c(Cl)c3F)c2cc1C1CN(C#N)C1 [Compound 195]
6.00 to 6.70

Give the reported value of pEC50 for this record: C=CC(=O)N1CCC(Oc2cc3c(Nc4ccc(C)c5ccccc45)ncnc3cc2OC)CC1 [Compound 167]
6.00 to 6.70

Give the reported value of pEC50 for this record: C=CS(=O)(=O)N1CCC(Oc2c(OC)cc3ncnc4c3c2NC(=O)N4c2ccc(Cl)c(Cl)c2)CC1 [Compound 226]
≥ 6.70

Give the reported value of pEC50 for this record: C=CC(=O)N[C@H]1C[C@@H](Oc2cc3c(C(=O)N[C@H](C)c4ccc(F)cc4)ncnc3cc2OC)C1 [Compound 97]
< 6.00

Give the reported value of pEC50 for this record: C=CC(=O)N1C2CCCC1CC(Oc1cc3c(Nc4cccc5ccccc45)ncnc3cc1OC)C2 (centres unmarked) [Compound 178]
≥ 6.70

Give the reported value of pEC50 for this record: C=CC(=O)N1CC(c2cc3c(Nc4ccc(F)c(Cl)c4F)ncnc3cc2O[C@H]2CCOC2)C1 [Compound 33]
≥ 6.70

Give the reported value of pEC50 for this record: C=CC(=O)N1CCC(Oc2cc3c(NC(CCO)c4cccc(Cl)c4)ncnc3cc2OC)CC1 (centres unmarked) [Compound 131]
≥ 6.70

Give the reported value of pEC50 for this record: C=CC(=O)N1C2CCC1CC(Oc1cc3c(Nc4cccc5c4CCC5)ncnc3cc1OC)C2 (centres unmarked) [Compound 183]
6.00 to 6.70

Give the reported value of pEC50 for this record: C=CC(=O)N1CCC(Oc2cc3c(Nc4ccc5cn[nH]c5c4)ncnc3cc2OC)CC1 [Compound 137]
6.00 to 6.70

Give the reported value of pEC50 for this record: C#CC(=O)N[C@H]1C[C@H](Oc2cc3c(Nc4ccc5ccccc5c4)ncnc3cc2OC)C1 [Compound 48]
6.00 to 6.70

Give the reported value of pEC50 for this record: C=CC(=O)N1CC(c2cc3c(NCc4ccc(F)cc4)ncnc3cc2OC)C1 [Compound 13]
< 6.00

Give the reported value of pEC50 for this record: C=CC(=O)N1CCC(Oc2cc3c(Nc4ccc(Cl)c5ccccc45)ncnc3cc2OC)CC1 [Compound 164]
6.00 to 6.70

Give the reported value of pEC50 for this record: C=CC(=O)N1CCC(Oc2cc3c(NCc4cccc(C)c4)ncnc3cc2OC)CC1 [Compound 121]
6.00 to 6.70

Give the reported value of pEC50 for this record: C=CC(=O)NC1CC(Oc2cc3c(Nc4cccc5ccccc45)ncnc3cc2OC)C1 (centres unmarked) [Compound 81]
6.00 to 6.70

Give the reported value of pEC50 for this record: C=CC(=O)N1CC(c2cc3c(Nc4ccc(Cl)c5ccccc45)ncnc3cc2OC)C1 [Compound 7]
< 6.00

Give the reported value of pEC50 for this record: C#CC(=O)N1CCC(Oc2c(OC)cc3ncnc4c3c2NC(=O)N4c2ccc(Cl)c(Cl)c2)CC1 [Compound 227]
6.00 to 6.70

Where do the numbers come from? From patent US20250243171A1.
